Hello, the source for this data is ChEMBL document CHEMBL4680128, in case you need it.

Target: Pituitary adenylate cyclase-activating polypeptide type I receptor (Homo sapiens, UniProt P41586)
Experiment: Antagonist activity at PAC1 receptor (unknown origin) expressed in CHO cells assessed as inhibition of PACAP-induced inhibition of CREB phosphorylation preincubated for 30 mins followed by PACAP stimulation and measured after 30 mins by Western blot analysis
MEASURED PARAMETER: IC50 (nM)
Answer in nM, number only, no unit symbol.

Entry under review: O=C(NCCc1c[nH]cn1)C1CC(=O)N(c2n[nH]c3ccccc23)C1 (configuration not stated) . Reported IC50? 0.182
